assayed.system: HDAC2 (Homo sapiens, UniProt Q92769)
Construct: Recombinant, full-length HDAC protein (BPS Biosciences) was incubated with fluorophore conjugated substrate; purchased BPS Biosciences
Sequence (Q92769 whole entry): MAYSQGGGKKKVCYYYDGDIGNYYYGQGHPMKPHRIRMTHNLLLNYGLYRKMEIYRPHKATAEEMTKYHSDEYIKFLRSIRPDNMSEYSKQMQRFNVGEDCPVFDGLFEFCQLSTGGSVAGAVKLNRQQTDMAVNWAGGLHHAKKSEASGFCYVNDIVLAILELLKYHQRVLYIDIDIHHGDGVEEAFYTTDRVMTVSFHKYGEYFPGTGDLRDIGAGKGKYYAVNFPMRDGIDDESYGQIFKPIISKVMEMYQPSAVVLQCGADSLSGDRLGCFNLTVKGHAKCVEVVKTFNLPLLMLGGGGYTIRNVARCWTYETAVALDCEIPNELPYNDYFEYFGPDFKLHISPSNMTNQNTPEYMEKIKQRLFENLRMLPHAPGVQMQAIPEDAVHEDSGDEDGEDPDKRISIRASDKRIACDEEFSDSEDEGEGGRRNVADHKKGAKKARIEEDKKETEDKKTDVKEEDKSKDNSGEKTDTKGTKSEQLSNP
procedure.summary: In vitro HDAC enzyme inhibition assay, HDAC2
Format: biochemical
condition: ratio of IC50 for HDAC2 relative to that of HDAC6
Procedure: In vitro Histone Deacetylase enzyme assays were performed using Class I (isoforms: HDAC1, HDAC2, HDAC3 and HDAC8), class IIa (isoforms: HDAC4, HDAC5, HDAC7 and HDAC9) and class IIb (isoform HDAC6). HDAC activities were determined in vitro with an optimized homogenous assay performed in a 384-well plate. […] Fluorescence measurements were obtained every five minutes using a multilabel plate reader and plate-stacker (Envision; Perkin-Elmer). […]
// -1 strictly below 2000 in HDAC2/HDAC6 in vitro selectivity; 1 otherwise

>>> df
                                item_smiles                        assayed_system  label_class
0  O=C(NO)c1ccc(Cn2c(C(F)(F)F)nc3cc(Br)ccc32)cc1  HDAC2 (Homo sapiens, UniProt Q92769)           -1
1  COc1ccc2c(c1)[nH]c(=O)n2Cc1ccc(C(=O)NO)cc1  HDAC2 (Homo sapiens, UniProt Q92769)           -1
2       O=C(NO)c1ccc(Cn2nnc3cc(Cl)ccc32)cc1  HDAC2 (Homo sapiens, UniProt Q92769)            1
3  Cc1ccc2c(c1)nc(C(F)(F)F)n2Cc1ccc(C(=O)NO)cc1  HDAC2 (Homo sapiens, UniProt Q92769)           -1
4  O=C(NO)c1ccc(Cn2c(=O)[nH]c3cc(Br)ccc32)cc1  HDAC2 (Homo sapiens, UniProt Q92769)           -1
5    O=C(NO)c1ccc(Cn2c(=O)[nH]c3ccccc32)cc1  HDAC2 (Homo sapiens, UniProt Q92769)            1
6           O=C(NO)c1ccc(Cn2cnc3ccccc32)cc1  HDAC2 (Homo sapiens, UniProt Q92769)           -1
7  O=C(NO)c1ccc(Cn2c(=O)[nH]c3cc(F)ccc32)cc1  HDAC2 (Homo sapiens, UniProt Q92769)            1
8  COc1ccc2c(c1)nc(C(F)(F)F)n2Cc1ccc(C(=O)NO)cc1  HDAC2 (Homo sapiens, UniProt Q92769)           -1
9  O=C(NO)c1ccc(Cn2c(C(F)(F)F)nc3cc(F)ccc32)cc1  HDAC2 (Homo sapiens, UniProt Q92769)           -1

Q: Test whether the molecule "O=C(NO)c1ccc(Cn2cnc3cc(Br)ccc32)cc1" records HDAC2/HDAC6 in vitro selectivity of 2000 or higher.
A: -1

Q: Test whether the molecule "Cc1ccc2c(c1)[nH]c(=O)n2Cc1ccc(C(=O)NO)cc1" records HDAC2/HDAC6 in vitro selectivity of 2000 or higher.
A: 1

Q: Test whether the molecule "COc1ccc2c(c1)ncn2Cc1ccc(C(=O)NO)cc1" records HDAC2/HDAC6 in vitro selectivity of 2000 or higher.
A: -1

Q: Test whether the molecule "O=C(NO)c1ccc(Cn2cnc3cc(Cl)ccc32)cc1" records HDAC2/HDAC6 in vitro selectivity of 2000 or higher.
A: -1

Q: Test whether the molecule "O=C(NO)c1ccc(Cn2nnc3ccccc32)cc1" records HDAC2/HDAC6 in vitro selectivity of 2000 or higher.
A: 1

Q: Test whether the molecule "O=C(NO)c1ccc(Cn2cnc3cc(F)ccc32)cc1" records HDAC2/HDAC6 in vitro selectivity of 2000 or higher.
A: 1

Q: Test whether the molecule "O=C(NO)c1ccc(Cn2nnc3cc(Br)ccc32)cc1" records HDAC2/HDAC6 in vitro selectivity of 2000 or higher.
A: 1

Q: Test whether the molecule "O=C(NO)c1ccc(Cn2c(C(F)(F)F)nc3ccccc32)cc1" records HDAC2/HDAC6 in vitro selectivity of 2000 or higher.
A: -1

Q: Test whether the molecule "O=C(NO)c1ccc(Cn2nnc3cc(F)ccc32)cc1" records HDAC2/HDAC6 in vitro selectivity of 2000 or higher.
A: 1

Q: Test whether the molecule "Cc1ccc2c(c1)ncn2Cc1ccc(C(=O)NO)cc1" records HDAC2/HDAC6 in vitro selectivity of 2000 or higher.
A: -1

Q: Test whether the molecule "O=C(NO)c1ccc(Cn2c(=O)[nH]c3cc(C(F)(F)F)ccc32)cc1" records HDAC2/HDAC6 in vitro selectivity of 2000 or higher.
A: -1

Q: Test whether the molecule "O=C(NO)c1ccc(Cn2c(=O)[nH]c3cc(Cl)ccc32)cc1" records HDAC2/HDAC6 in vitro selectivity of 2000 or higher.
A: -1

Q: Test whether the molecule "O=C(NO)c1ccc(Cn2c(C(F)(F)F)nc3cc(Cl)ccc32)cc1" records HDAC2/HDAC6 in vitro selectivity of 2000 or higher.
A: -1
